Experimental Target: BChE from the plasma (Homo sapiens (Human))
Test Protocol: Ellman's method, butyrylcholinesterase inhibition
Recorded Conditions: human plasma BChE, Ellman's method, phosphate buffer pH 8.0 as reference
Observable: IC50

Prompt: Provide BChE from the plasma (Homo sapiens (Human)) IC50 reading for CC(=O)O[C@@]12CCN(C(C)=O)[C@@H]1N(C(C)=O)c1ccc(OC(=O)NCCCCCCNc3c4c(nc5ccccc35)CCCC4)cc12 (stereo in doubt) [Example 7] .
Completion: 3.15 nM

Prompt: Please report the measured IC50 for CC(=O)NCCc1c[nH]c2ccc(OC(=O)NCCCCCCNc3c4c(nc5ccccc35)CCCC4)cc12 [Example 3] tested on BChE from the plasma (Homo sapiens (Human)).
Completion: 2.04 nM

Prompt: Please indicate recorded IC50 of CC(=O)NCCc1c[nH]c2ccc(OC(=O)NCCCCCNc3c4c(nc5ccccc35)CCCC4)cc12 [Example 10] measured with BChE from the plasma (Homo sapiens (Human)).
Completion: 2.07 nM

Prompt: Name the recorded IC50 of CC(=O)NCCc1c[nH]c2ccc(OC(=O)NCCCCCCCCNc3c4c(nc5ccccc35)CCCC4)cc12 [Example 11] , assay system BChE from the plasma (Homo sapiens (Human)).
Completion: 0.25 nM

Prompt: // fetch IC50; item: CC(=O)NCCc1c[nH]c2ccc(OC(=O)NCCCNc3c4c(nc5ccccc35)CCCC4)cc12 [Example 8] ; system: BChE from the plasma (Homo sapiens (Human))
Completion: 58.2 nM

Prompt: State the measured IC50 (BChE from the plasma (Homo sapiens (Human))) of CC(=O)NCCc1c[nH]c2ccc(OC(=O)NCCCCCCCCCCCCNc3c4c(nc5ccc(Cl)cc35)CCCC4)cc12 [Example 17]
Completion: 0.78 nM

Prompt: Report the value of IC50 obtained on BChE from the plasma (Homo sapiens (Human)) for CC(=O)NCCc1c[nH]c2ccc(OC(=O)NCCCCCCCNc3c4c(nc5ccccc35)CCCC4)cc12 [Example 1] .
Completion: 0.25 nM

Prompt: Report value only: IC50, BChE from the plasma (Homo sapiens (Human)), CC(=O)NCCc1c[nH]c2ccc(OC(=O)NCCCCNc3c4c(nc5ccccc35)CCCC4)cc12 [Example 9]
Completion: 15.5 nM

Prompt: Tell me IC50 of CC(=O)NCCc1c[nH]c2ccc(OC(=O)NCCCCCCCCCCCCNc3c4c(nc5ccccc35)CCCC4)cc12 [Example 15] when tested on BChE from the plasma (Homo sapiens (Human)).
Completion: 0.24 nM

Prompt: For BChE from the plasma (Homo sapiens (Human)), give the measured IC50 of the entry CC(=O)NCCc1c[nH]c2ccc(OC(=O)NCCCCCCCCCCNc3c4c(nc5ccccc35)CCCC4)cc12 [Example 14]
Completion: 0.28 nM

Prompt: Identify measured IC50 obtained with BChE from the plasma (Homo sapiens (Human)) for CC(=O)NCCc1c[nH]c2ccc(OC(=O)NCCCCCCCCCCNc3c4c(nc5ccc(Cl)cc35)CCCC4)cc12 [Example 16] .
Completion: 1.64 nM

====

Experimental Target: BChE from the plasma (Homo sapiens (Human), UniProt P06276)
Sequence (P06276 29-602): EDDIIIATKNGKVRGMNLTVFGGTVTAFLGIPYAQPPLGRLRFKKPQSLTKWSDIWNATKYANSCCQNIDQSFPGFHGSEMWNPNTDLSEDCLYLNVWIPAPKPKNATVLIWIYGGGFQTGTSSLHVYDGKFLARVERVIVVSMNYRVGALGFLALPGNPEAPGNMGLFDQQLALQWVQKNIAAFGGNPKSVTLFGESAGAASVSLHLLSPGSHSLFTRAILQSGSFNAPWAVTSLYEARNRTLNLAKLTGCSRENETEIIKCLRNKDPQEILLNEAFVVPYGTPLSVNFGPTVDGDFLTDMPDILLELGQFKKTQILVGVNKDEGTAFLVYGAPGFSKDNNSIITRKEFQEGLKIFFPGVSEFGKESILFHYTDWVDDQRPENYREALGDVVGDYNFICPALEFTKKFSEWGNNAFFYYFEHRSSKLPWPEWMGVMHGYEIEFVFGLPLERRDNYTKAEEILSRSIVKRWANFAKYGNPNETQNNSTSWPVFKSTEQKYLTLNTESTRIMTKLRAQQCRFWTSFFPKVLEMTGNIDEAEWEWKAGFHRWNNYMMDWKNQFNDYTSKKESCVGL
Test Protocol: Ellman's method, butyrylcholinesterase inhibition
Assay type: biochemical
Recorded Conditions: ratio of IC50 for AChE to IC50 for BChE
I'd be grateful if you could share measured Selectivity IC50(AChE)/IC50(BChE) for these entries.
No unit in the answer, please; the number alone is enough.

Prompt: Report the value of Selectivity IC50(AChE)/IC50(BChE) obtained on BChE from the plasma (Homo sapiens (Human), UniProt P06276) for `CC(=O)NCCc1c[nH]c2ccc(OC(=O)NCCCCCCCCCCNc3c4c(nc5ccc(Cl)cc35)CCCC4)cc12` .
Completion: 0.9

Prompt: Please tell me the measured Selectivity IC50(AChE)/IC50(BChE) for `CC(=O)NCCc1c[nH]c2ccc(OC(=O)NCCCCCNc3c4c(nc5ccccc35)CCCC4)cc12` ; system: BChE from the plasma (Homo sapiens (Human), UniProt P06276).
Completion: 90.1

Prompt: Provide measured Selectivity IC50(AChE)/IC50(BChE) on BChE from the plasma (Homo sapiens (Human), UniProt P06276) for `CC(=O)NCCc1c[nH]c2ccc(OC(=O)NCCCCCCCNc3c4c(nc5ccccc35)CCCC4)cc12` please.
Completion: 135.1

Prompt: Provide Selectivity IC50(AChE)/IC50(BChE), tested on BChE from the plasma (Homo sapiens (Human), UniProt P06276), for CC(=O)O[C@@]12CCN(C(C)=O)[C@@H]1N(C(C)=O)c1ccc(OC(=O)NCCCCCCNc3c4c(nc5ccccc35)CCCC4)cc12 (stereo in doubt) .
Completion: 11.7

Prompt: Give Selectivity IC50(AChE)/IC50(BChE) for `CC(=O)NCCc1c[nH]c2ccc(OC(=O)NCCCCCCCCCCCCNc3c4c(nc5ccc(Cl)cc35)CCCC4)cc12` tested on BChE from the plasma (Homo sapiens (Human), UniProt P06276).
Completion: 9

Prompt: Consider the molecule `CC(=O)NCCc1c[nH]c2ccc(OC(=O)NCCCCCCNc3c4c(nc5ccccc35)CCCC4)cc12` tested on BChE from the plasma (Homo sapiens (Human), UniProt P06276); state its Selectivity IC50(AChE)/IC50(BChE).
Completion: 87.4

Prompt: Please look at `CC(=O)NCCc1c[nH]c2ccc(OC(=O)NCCNc3c4c(nc5cc(Cl)ccc35)CCCC4)cc12` and tell me its recorded Selectivity IC50(AChE)/IC50(BChE) on BChE from the plasma (Homo sapiens (Human), UniProt P06276).
Completion: 0.6

Prompt: Fill in: Selectivity IC50(AChE)/IC50(BChE) on BChE from the plasma (Homo sapiens (Human), UniProt P06276), entry `CC(=O)NCCc1c[nH]c2ccc(OC(=O)NCCCCCCCCNc3c4c(nc5ccccc35)CCCC4)cc12`
Completion: 18.4

Prompt: Under BChE from the plasma (Homo sapiens (Human), UniProt P06276), report Selectivity IC50(AChE)/IC50(BChE) for `CC(=O)NCCc1c[nH]c2ccc(OC(=O)NCCCCCCCCCCCCNc3c4c(nc5cc(Cl)ccc35)CCCC4)cc12`
Completion: 19.5

Prompt: State, for BChE from the plasma (Homo sapiens (Human), UniProt P06276), measured Selectivity IC50(AChE)/IC50(BChE) of the molecule listed here: `CC(=O)NCCc1c[nH]c2ccc(OC(=O)NCCCCCCCNc3c4c(nc5cc(Cl)ccc35)CCCC4)cc12`
Completion: 20.3

Prompt: State Selectivity IC50(AChE)/IC50(BChE) on BChE from the plasma (Homo sapiens (Human), UniProt P06276). Entry: `CC(=O)NCCc1c[nH]c2ccc(OC(=O)NCCCCNc3c4c(nc5ccccc35)CCCC4)cc12`
Completion: 24.4

Prompt: // fetch Selectivity IC50(AChE)/IC50(BChE) for `CC(=O)NCCc1c[nH]c2ccc(OC(=O)NCCCCCCCCCCNc3c4c(nc5ccccc35)CCCC4)cc12` ; system: BChE from the plasma (Homo sapiens (Human), UniProt P06276)
Completion: 4.2

Prompt: Fetch value of Selectivity IC50(AChE)/IC50(BChE) on BChE from the plasma (Homo sapiens (Human), UniProt P06276) for `CC(=O)NCCc1c[nH]c2ccc(OC(=O)NCCCCCCCCCCNc3c4c(nc5cc(Cl)ccc35)CCCC4)cc12` .
Completion: 6.7

Prompt: Recall the reported Selectivity IC50(AChE)/IC50(BChE) of `CC(=O)NCCc1c[nH]c2ccc(OC(=O)NCCCCCCCCCCCCNc3c4c(nc5ccccc35)CCCC4)cc12` when tested on BChE from the plasma (Homo sapiens (Human), UniProt P06276).
Completion: 15.8
